Test system: SNB-19 CNS
Experiment: NCI-60 one-dose screen, 48 h (100 = growth as untreated, 0 = no growth, -100 = all killed)
Settings: 10 µM unless noted
Compounds without any hit were thinned out: in the full panel of roughly 83,000, 20% have a hit.
Measured growth values are reported for all entries that follow.
Numbers only here, please. The scale is %.

Reference set (3 entries):
Molecule: CC[n+]1c(/C=C/C=C2\N(C)c3ccccc3C2(C)C)sc2ccccc21
Experimental System: SNB-19 CNS
Data Value: 31.9
//
Molecule: O=CC(OC(=O)c1ccccc1)C(OC(=O)c1ccccc1)C(COC(c1ccccc1)(c1ccccc1)c1ccccc1)OC(=O)c1ccccc1 (centres undefined)
Experimental System: SNB-19 CNS
Data Value: 78.8
//
Molecule: COc1cc2c3c(c1)nc(C)n3CCC2
Experimental System: SNB-19 CNS
Data Value: 101

Query (molecule): CCCNC(=O)c1cn2ncnc(Nc3cc(C(=O)NC4CC4)ccc3C)c2c1C ; field requested: growth
70.7

====

Test system: SK-MEL-28 melanoma
Test: NCI-60 one-dose screen, 48 h (100 = growth as untreated, 0 = no growth, -100 = all killed)
Conditions: 10 µM unless noted
The panel holds about 83,000 compounds, 20% with a hit somewhere; the sample as a whole holds those more often.
Measured growth values are reported for all entries that follow.
Numbers only here, please. The scale is %.

Reference set (5 entries):
Smiles Representation: CCCCCc1ccc(C)cc1OC(=O)CCl
growth, %: 113

Smiles Representation: COc1ccc(C(=O)N2c3ccccc3Sc3ccccc32)c(F)c1
growth, %: 58.9

Smiles Representation: CO[C@H]1C[C@@H]2CC[C@@H](C)[C@@](O)(O2)C(=O)C(=O)N2CCCC[C@H]2C(=O)O[C@H]([C@H](C)C[C@@H]2CC[C@@H](OP(C)(C)=O)[C@H](OC)C2)CC(=O)[C@H](C)/C=C(\C)[C@@H](O)[C@@H](OC)C(=O)[C@H](C)C[C@H](C)\C=C/C=C/C=C/1C
growth, %: 54.4

Smiles Representation: COc1ccc2c(CCCCC(c3ccccc3)c3ccccc3)c3[n+](cc2c1OC)CCc1cc2c(cc1-3)OCO2
growth, %: -82.1

Smiles Representation: COc1ccc(F)c(F)c1C(=O)c1cnc(NC2CCN(S(C)(=O)=O)CC2)nc1N
growth, %: -35.3

Query (compound): C=C1C(=O)O[C@H]2[C@H]1CC/C(CNC(=O)c1cc3cc(OC)ccc3[nH]1)=C\CC[C@@]1(C)O[C@@H]21 ; field requested: growth
-59.3

Query (compound): CCCCCCCCCNCCCCCCCCC ; field requested: growth
43.5

Query (compound): COc1cc(NCCN(CC(C)C)CC(C)C)c2ncc(C)cc2c1 ; field requested: growth
79.7

====

Test system: TK-10 renal
Assay: NCI-60 one-dose screen, 48 h (100 = growth as untreated, 0 = no growth, -100 = all killed)
Conditions: 10 µM unless noted
The panel holds about 83,000 compounds, 20% with a hit somewhere; the sample as a whole holds those more often.
Attribute Measured: growth (%)
Numbers only here, please. The scale is %.

Compound: O=C(Nc1ccc(-c2ccnc(Nc3ccc(N4CCOCC4)cc3)n2)cc1)[C@@H]1CCCN1
Attribute Measured: growth
Measurement Unit: %
Data Value: 71.6
--
Compound: O=C(Nc1cnn2ccc(N3CCC[C@@H]3c3cc(F)ccc3F)nc12)N1CC[C@H](O)C1
Attribute Measured: growth
Measurement Unit: %
Data Value: 99.8
--
Compound: C=CCN(/C=C1/C(=O)O[C@H](COC)[C@@]2(C)C1=C(O)C(=O)C1=C2[C@H](OC(C)=O)C[C@]2(C)C(=O)CC[C@@H]12)CC=C
Attribute Measured: growth
Measurement Unit: %
Data Value: 3.59

Fill in the recorded growth for this compound, with TK-10 renal as test system: O=C(Nc1cccc(Cl)c1)Nc1ncc(CCNc2ncnc3ccsc23)s1
28.9

Fill in the recorded growth for this compound, with TK-10 renal as test system: Cc1cc(C2(c3ccc(O)c(C)c3)OS(=O)(=O)c3ccccc32)ccc1O
111

Fill in the recorded growth for this compound, with TK-10 renal as test system: CC(=O)C1CC(C)CCC1C(C)C (stereo not given)
83.2

Fill in the recorded growth for this compound, with TK-10 renal as test system: Clc1ccc(/C=C/c2cc(N3CCOCC3)c3cc(Cl)c(Cl)cc3n2)cc1
92.8

Fill in the recorded growth for this compound, with TK-10 renal as test system: C/C=C/C=N/NC(=S)Nc1ccccc1
112

Fill in the recorded growth for this compound, with TK-10 renal as test system: C=C1C(=O)O[C@H]2[C@H]1CC/C(C=Nc1c(N)cc(C(F)(F)F)cc1C(F)(F)F)=C\CC[C@@]1(C)O[C@@H]21
-41

Fill in the recorded growth for this compound, with TK-10 renal as test system: CN1[C@@H]2CC[C@H]1/C(=C\c1ccccc1)C1=C2[C@@H](c2ccccc2)C(C#N)=C(N)O1
89.5

====

Test system: 786-0 renal
Test: NCI-60 one-dose screen, 48 h (100 = growth as untreated, 0 = no growth, -100 = all killed)
Details: 10 µM unless noted
This is part of a sample that, as a whole, favours compounds with a hit. Of some 83,000 tested, about 20% had one in any assay.
Measured growth values are reported for all entries that follow.
Numbers only here, please. The scale is %.

Reference set (10 entries):
Smiles Representation: CN1CCN(CCOc2cc(OC3CCOCC3)c3c(Nc4c(Cl)ccc5c4OCO5)ncnc3c2)CC1
Measurement Unit: %
growth: 48.1
--
Smiles Representation: CCOc1cccc(/C=N/NC(=O)c2ccccc2Nc2ccnc(C(F)(F)F)c2)c1O
Measurement Unit: %
growth: 3.64
--
Smiles Representation: COc1cc2c3c(c1)nc(C)n3CCC2
Measurement Unit: %
growth: 98.1
--
Smiles Representation: C1=C\COCc2cc(ccc2OCCN2CCCC2)Nc2nccc(n2)-c2cccc(c2)COC/1
Measurement Unit: %
growth: 1.51
--
Smiles Representation: CNC(=O)c1ccc(Nc2ncc(C(F)(F)F)c(NCc3nccnc3N(C)S(C)(=O)=O)n2)cc1
Measurement Unit: %
growth: 8.71
--
Smiles Representation: CC/C=C\C[C@H]1C/C=C2/C(=O)C=C[C@@H]2C/C=C\CCCC(=O)O1
Measurement Unit: %
growth: -79.9
--
Smiles Representation: C=CCC(=O)N[C@H](/C=C/C(=O)O)Cc1ccc(-c2cc(Cl)cc(Cl)c2)cc1
Measurement Unit: %
growth: 98.4
--
Smiles Representation: CCN(CCN(C)C)C(=O)CNCc1cc(C(N)=O)ccn1
Measurement Unit: %
growth: 103
--
Smiles Representation: Cc1cnc(NC(=O)Nc2cc(Br)c(C)cc2OC[C@@H]2CNCCO2)cn1
Measurement Unit: %
growth: 2.83
--
Smiles Representation: Cc1cc(N2CCOCC2)nc(N(CCNc2ccnc3cc(Cl)ccc23)Cc2cccs2)n1
Measurement Unit: %
growth: -35.2

Query (compound): O=C(O)c1ccc(Nc2ncc3c(n2)-c2ccc(Cl)cc2C(c2c(F)cccc2F)=NC3)cc1 ; field requested: growth
63

====

Measured growth values are reported for all entries that follow.
System: NCI/ADR-RES ovarian
Assay: NCI-60 one-dose screen, 48 h (100 = growth as untreated, 0 = no growth, -100 = all killed)
Details: 10 µM unless noted
Compounds without any hit were thinned out: in the full panel of roughly 83,000, 20% have a hit.
Numbers only here, please. The scale is %.

Molecule: CN1CCN(c2nc(C3=C(c4c[nH]c5ccccc45)C(=O)NC3=O)c3ccccc3n2)CC1
Attribute Measured: growth
Measurement Unit: %
Data Value: 85.1

Molecule: COc1cnc2c(c1)C(=O)c1c-2n(CCCNC2=NCCS2)c(=O)c2cc(Cl)ccc12
Attribute Measured: growth
Measurement Unit: %
Data Value: -14.5

Molecule: O=c1nc2c(-c3nc4ccccc4s3)n[nH]n2c2sc3c(c12)CCCC3
Attribute Measured: growth
Measurement Unit: %
Data Value: 96.9

Molecule: Cc1ccc(NC(=O)Nc2ccc(Nc3ncnc4sc5c(c34)CCOC5)cc2)cc1Cl
Attribute Measured: growth
Measurement Unit: %
Data Value: 106

Molecule: C=C1C(=O)O[C@H]2[C@H]1CC/C(CNC(=O)c1cc3cc(OC)ccc3[nH]1)=C\CC[C@@]1(C)O[C@@H]21
Attribute Measured: growth
Measurement Unit: %
Data Value: 54.3

Molecule: O=S1(=O)OC(c2cc(Cl)c(O)c(Br)c2)(c2cc(Cl)c(O)c(Br)c2)c2ccccc21
Attribute Measured: growth
Measurement Unit: %
Data Value: 102

Molecule: Cc1cc(-c2cc(OC(=O)c3ccccc3)ccc2Cl)cc2nnc(Nc3ccc(OCCN4CCCC4)cc3)nc12
Attribute Measured: growth
Measurement Unit: %
Data Value: 110

Molecule: N#CCNC(=O)c1ccc(-c2ccnc(Nc3ccc(N4CCOCC4)cc3)n2)cc1
Attribute Measured: growth
Measurement Unit: %
Data Value: 62.7

Query (molecule): C#Cc1cccc(Nc2ncnc3cc4c(cc23)OCCOCCOCCO4)c1 ; field requested: growth
58.5

Query (molecule): CSC1=C(N)C(=O)c2[nH]cc(CO)c2C1=N ; field requested: growth
-23

Query (molecule): CCCCCC(=O)OCc1ccc(Cl)c(Cl)c1 ; field requested: growth
102

Query (molecule): CCOC(=O)C1=C(C)N=C2Sc3cc(OC(F)(F)F)ccc3N2[C@H]1c1ccccn1 ; field requested: growth
38.2

Query (molecule): CCN(CCCOc1ccc2c(Nc3cc(CC(=O)Nc4cccc(F)c4)[nH]n3)ncnc2c1)CCOP(=O)(O)O ; field requested: growth
98.3

Query (molecule): Cn1ncc(Cl)c1-c1cc(C(=O)N[C@H](CN)Cc2ccc(F)c(F)c2)oc1Cl ; field requested: growth
8.92

Taken from PubChem BioAssay (NCI).
